Protocol summary: Substrate specificity of WNanoKAZ mutants, crude enzyme solution (Example 11)
Type: biochemical
Experimental setup: Imax
// Relative luminescence activity, f-CTZ, Imax lookup, one value per entry
Test readout: Relative luminescence activity, f-CTZ, Imax

>  <Molecule>
WNanoKAZ-I138Y: single amino acid-substituted WNanoKAZ mutant I138Y; SEQ ID NO: 14 (protein) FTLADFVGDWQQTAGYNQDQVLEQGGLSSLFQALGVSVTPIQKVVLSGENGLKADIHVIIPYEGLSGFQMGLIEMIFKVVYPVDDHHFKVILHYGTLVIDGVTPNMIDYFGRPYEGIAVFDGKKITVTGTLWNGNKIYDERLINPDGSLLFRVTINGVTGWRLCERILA

>  <Measured value>
29

$$$$
>  <Molecule>
KAZ: 19 kDa protein of native Oplophorus luciferase having luminescence activity; SEQ ID NO: 2 (protein, listed as Oplophorus gracilirostris) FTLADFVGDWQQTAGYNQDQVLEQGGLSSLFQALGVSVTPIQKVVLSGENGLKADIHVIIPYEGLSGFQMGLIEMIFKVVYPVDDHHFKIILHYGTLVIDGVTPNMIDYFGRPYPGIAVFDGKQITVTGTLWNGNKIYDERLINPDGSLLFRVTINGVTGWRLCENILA

>  <Measured value>
1.0

$$$$
>  <Molecule>
WNanoKAZ-K124Q: single amino acid-substituted WNanoKAZ mutant K124Q; SEQ ID NO: 12 (protein) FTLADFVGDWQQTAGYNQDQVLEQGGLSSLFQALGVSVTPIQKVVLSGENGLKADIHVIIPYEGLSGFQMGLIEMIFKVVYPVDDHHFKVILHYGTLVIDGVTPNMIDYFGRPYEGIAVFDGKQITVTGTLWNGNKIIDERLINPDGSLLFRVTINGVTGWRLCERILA

>  <Measured value>
64

$$$$
